# tested target: human Cereblon WT GST-tagged protein (Homo sapiens, UniProt Q96SW2)
# Construct: purchased CISBIO 64BDCRBNPEH
# Sequence (Q96SW2 whole entry): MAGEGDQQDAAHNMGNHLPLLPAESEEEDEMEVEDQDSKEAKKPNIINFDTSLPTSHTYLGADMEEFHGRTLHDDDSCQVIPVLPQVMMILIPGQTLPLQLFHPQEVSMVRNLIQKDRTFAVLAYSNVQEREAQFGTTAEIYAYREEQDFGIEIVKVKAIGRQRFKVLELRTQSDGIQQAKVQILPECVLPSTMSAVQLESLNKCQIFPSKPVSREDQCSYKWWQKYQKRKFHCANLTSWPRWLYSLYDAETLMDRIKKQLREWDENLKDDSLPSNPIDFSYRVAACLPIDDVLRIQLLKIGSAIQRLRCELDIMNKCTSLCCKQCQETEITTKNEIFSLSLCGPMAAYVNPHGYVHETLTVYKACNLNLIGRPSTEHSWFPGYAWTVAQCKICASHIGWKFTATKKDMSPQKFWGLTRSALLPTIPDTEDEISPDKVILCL
# method notes: CRBN-binding affinity, HTRF (CEREBLON BINDING kit)
# study conditions: read-out: Inhibition Rate at 2 µM (%)
quantity: inhibition at 2 µM

>  <compound>
O=C1CCC(N2Cc3c(CN4CC=C(c5ncnc6sccc56)CC4)cccc3C2=S)C(=O)N1 (stereo not drawn)

>  <obs value>
80 to 100%

$$$$
>  <compound>
Cc1sc2ncnc(N3CCCN(Cc4ccc5c(c4)CN(C4CCC(=O)NC4=O)C5=S)CC3)c2c1C (stereo not drawn)

>  <obs value>
80 to 100%

$$$$

// below: inhibition at 2 µM requested for another compound
Memo: O=C1CCC(N2Cc3c(CN4CCC(c5cccc6cnccc56)CC4)cccc3C2=S)C(=O)N1 (stereo not drawn) , reported inhibition at 2 µM: 80 to 100%

* * *

# tested target: human Cereblon WT GST-tagged protein (Homo sapiens, UniProt Q96SW2)
# Construct: purchased CISBIO 64BDCRBNPEH
# method notes: CRBN-binding affinity, HTRF (CEREBLON BINDING kit)
# study conditions: read-out: Inhibition Rate at 2 µM (%)
I'd appreciate it if you could supply inhibition at 2 µM values for the items below.

Provide each entry's inhibition at 2 µM from the list below.
1. Cc1nc(C2CCN(Cc3ccc4c(c3)CN(C3CCC(=O)NC3=O)C4=S)CC2)c2c(-c3ccccc3)csc2n1 (stereo not drawn) [GT-09308]
2. O=C1CCC(N2Cc3cc(CN4CCN(c5nc(Cl)nc6ccsc56)CC4)ccc3C2=S)C(=O)N1 (stereo not drawn) [GT-09331]
3. O=C1CCC(N2Cc3c(CN4CC(N5CCc6cc(F)ccc65)C4)cccc3C2=S)C(=O)N1 (stereo not drawn) [GT-08635]

Solution:
1: 80 to 100%; 2: 80 to 100%; 3: 80 to 100%

* * *

Kindly state inhibition at 2 µM for each of the entries shown.
# tested target: human Cereblon WT GST-tagged protein (Homo sapiens)
# Construct: purchased CISBIO 64BDCRBNPEH
# method notes: CRBN-binding affinity, HTRF (CEREBLON BINDING kit)
# study conditions: read-out: Inhibition Rate at 2 µM (%)

>  <compound>
O=C1CCC(N2Cc3c(CN4CCc5sccc5C4)cccc3C2=S)C(=O)N1 (stereo not shown)

>  <inhibition at 2 µM>
80 to 100%

$$$$
>  <compound>
O=C1CCC(N2Cc3c(CN4CCN(c5ccccc5Cl)CC4)cccc3C2=S)C(=O)N1 (stereo not shown)

>  <inhibition at 2 µM>
53 to 60%

$$$$
>  <compound>
Cc1sc2ncnc(N3CCN(Cc4ccc5c(c4)CN(C4CCC(=O)NC4=O)C5=S)CC3)c2c1C (stereo not shown)

>  <inhibition at 2 µM>
80 to 100%

$$$$
>  <compound>
O=C1CCC(N2Cc3cc(CN4CCC(N(c5ccccc5)c5ccccn5)CC4)ccc3C2=S)C(=O)N1 (stereo not shown)

>  <inhibition at 2 µM>
80 to 100%

$$$$
>  <compound>
Cc1ccc(Cl)cc1N1CCN(Cc2ccc3c(c2)CN(C2CCC(=O)NC2=O)C3=S)CC1 (stereo not shown)

>  <inhibition at 2 µM>
60 to 80%

$$$$
>  <compound>
O=C1CCC(N2Cc3cc(CN4CCN(c5ncccc5Cl)CC4)ccc3C2=S)C(=O)N1 (stereo not shown)

>  <inhibition at 2 µM>
80 to 100%

$$$$
>  <compound>
O=C1CCC(N2Cc3c(CN4C5CCC4CN(c4cccc(Cl)c4Cl)C5)cccc3C2=S)C(=O)N1 (stereo not shown)

>  <inhibition at 2 µM>
60 to 80%

$$$$
>  <compound>
O=C1CCC(N2Cc3cc(CN4CC=C(c5cccs5)CC4)ccc3C2=S)C(=O)N1 (stereo not shown)

>  <inhibition at 2 µM>
80 to 100%

$$$$

Give measured inhibition at 2 µM for every item shown.
1. O=C1CCC(N2Cc3c(CN4CCN(c5cnccn5)CC4)cccc3C2=S)C(=O)N1 (stereo not shown)
2. Cc1cc2c(C3=CCN(Cc4ccc5c(c4)CN(C4CCC(=O)NC4=O)C5=S)CC3)ncnc2s1 (stereo not shown)
3. O=C1CCC(N2Cc3c(CN4CC=C(c5ccco5)CC4)cccc3C2=S)C(=O)N1 (stereo not shown)

Solution:
1. 80 to 100%
2. 80 to 100%
3. 80 to 100%

For every item in the list below, what is its measured inhibition at 2 µM?
1. O=C1CCC(N2Cc3c(CN4CCN(c5ncnc6sc(Br)cc56)CC4)cccc3C2=S)C(=O)N1 (stereo not shown)
2. CC1(C)CN(Cc2cccc3c2CN(C2CCC(=O)NC2=O)C3=S)CCN1C(c1ccccc1)c1ccccc1 (stereo not shown)
3. Cc1nc(N2CCN(Cc3cccc4c3CN(C3CCC(=O)NC3=O)C4=S)CC2)c2c3c(sc2n1)CCC3 (stereo not shown)
4. O=C1CCC(N2Cc3cc(CN4CC=C(c5ncnc6sc(-c7ccccc7)cc56)CC4)ccc3C2=S)C(=O)N1 (stereo not shown)
5. O=C1CCC(N2Cc3c(CN4CCC(c5c[nH]c6ncccc56)CC4)cccc3C2=S)C(=O)N1 (stereo not shown)

Solution:
80 to 100%
60 to 80%
80 to 100%
80 to 100%
80 to 100%
